Tested on: HIV-1 IIIB (T-tropic, CXCR4 utilizing)
EXPERIMENT DESCRIPTION: HOS HIV-1 infectivity assay
Format: cell-based
RUN PARAMETERS: Human immunodeficiency virus 1; HIV-1 IIIB, HOS cells, 96 h, luciferase readout; read-out: HOS (3B)
Protocol: Compounds were profiled against two HIV-1 viruses, the M-tropic (CCR5 utilizing) Ba-L strain and the T-tropic (CXCR4 utilizing) IIIB strain. Both viruses were propagated in human peripheral blood lymphocytes. […] Following this incubation the endpoint for the virally infected cultures was quantified following addition of Steady-Glo Luciferase assay system reagent (Promega, Madison, Wis.). […] All luminescent readouts are performed on a Topcount luminescence detector (Packard, Meridien, Conn.).
ENDPOINT LABEL: pIC50
Just so you know, pIC50 here is -log10 of the concentration in molar units; reply with that number alone.

Just so you know, measured pIC50 for CCN(Cc1nc2cc(C(=O)NCCCN)ccc2[nH]1)C1CCCc2cccnc21 (centres unmarked) came out at 6.23

###

MEASUREMENT TARGET: human CXCR4 (Homo sapiens, UniProt P61073)
Construct: expressed in transfected cells; host or cells: HEK-293 cells (stably expressing human macrophage scavenging receptor) transduced with human CXCR4 BacMam and Gqi5 BacMam baculoviruses
Sequence (P61073 whole entry): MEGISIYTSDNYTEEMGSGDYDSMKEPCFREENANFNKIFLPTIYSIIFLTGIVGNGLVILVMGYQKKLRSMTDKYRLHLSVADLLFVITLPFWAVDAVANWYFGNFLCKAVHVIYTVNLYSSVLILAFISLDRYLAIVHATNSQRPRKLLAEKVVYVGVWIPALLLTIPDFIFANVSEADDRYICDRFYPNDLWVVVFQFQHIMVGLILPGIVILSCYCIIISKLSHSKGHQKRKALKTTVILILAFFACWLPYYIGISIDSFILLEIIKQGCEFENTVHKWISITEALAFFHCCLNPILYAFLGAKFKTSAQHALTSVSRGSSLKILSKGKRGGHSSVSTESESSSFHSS
EXPERIMENT DESCRIPTION: Functional FLIPR assay (block of SDF-1 alpha induced [Ca2+]i change)
Assay type: cell-based
RUN PARAMETERS: HEK-293 cells with human CXCR4 BacMam and Gqi5 BacMam; antagonism of SDF-1 alpha; read-out: Functional assay (pIC50) (converted)
Readings of log10 of IC50 for the listed compounds
# log10 transformed; quantity=IC50; unit=nM

Example cases with answers are listed next.
CN(Cc1nc2c(CNCCc3c[nH]cn3)cccc2[nH]1)C1CCCc2cccnc21 (stereo not drawn) ... 1.82
CN(Cc1nc2cccc(C(=O)NCCc3cnc[nH]3)c2[nH]1)C1CCCc2cccnc21 (stereo not drawn) ... 1.13
CN(Cc1nc2cccc(C(=O)N3CCNCC3)c2[nH]1)C1CCCc2cccnc21 (stereo not drawn) ... 1.20
CCN(Cc1nc2cc(C(=O)NCCc3cnc[nH]3)ccc2[nH]1)C1CCCc2cccnc21 (stereo not drawn) ... 2.65

Just so you know, measured log10 of IC50 for CN(Cc1nc2c(N3CCNCC3)cccc2[nH]1)C1CCCc2cccnc21 (stereo not drawn) came out at 0.91

Just so you know, measured log10 of IC50 for CN(Cc1nc2c(C(=O)N3CCC(N)C3)cccc2[nH]1)C1CCCc2cccnc21 (stereo not drawn) came out at 1.09

###

Readings of log10 of IC50 for the listed compounds
MEASUREMENT TARGET: human CXCR4 (Homo sapiens, UniProt P61073)
Construct: expressed in transfected cells; host or cells: HEK-293 cells (stably expressing human macrophage scavenging receptor) transduced with human CXCR4 BacMam and Gqi5 BacMam baculoviruses
EXPERIMENT DESCRIPTION: Functional FLIPR assay (block of SDF-1 alpha induced [Ca2+]i change)
Assay type: cell-based
RUN PARAMETERS: HEK-293 cells with human CXCR4 BacMam and Gqi5 BacMam; antagonism of SDF-1 alpha; read-out: Functional assay (pIC50) (converted)
# log10 transformed; quantity=IC50; unit=nM

CN(Cc1nc2cccc(C(=O)N3CCNCC3)c2n1C)C1CCCc2cccnc21 (stereo not drawn) ... 1.53
CN(Cc1nc2c(C(=O)NCCc3c[nH]cn3)cccc2n1C)C1CCCc2cccnc21 (stereo not drawn) ... 1.96
CN(Cc1nc2c(C(N)=O)cccc2[nH]1)C1CCCc2cccnc21 (stereo not drawn) ... 2.24
CCN(Cc1nc2cccc(C(=O)NCCCN)c2[nH]1)C1CCCc2cccnc21 (stereo not drawn) ... 2.08
CN(Cc1nc2c(C(=O)N3CCNCC3)cccc2n1C)C1CCCc2cccnc21 (stereo not drawn) ... 3.15
CCN(Cc1nc2cccc(C(=O)NCCCCN)c2[nH]1)C1CCCc2cccnc21 (stereo not drawn) ... 2.46
CCN(Cc1nc2cc(C(=O)NCCCN)ccc2[nH]1)C1CCCc2cccnc21 (stereo not drawn) ... 2.62
CN(Cc1nc2cccc(C(=O)NCCCCN)c2[nH]1)C1CCCc2cccnc21 (stereo not drawn) ... 2.41

Now consider a different compound.
Just so you know, measured log10 of IC50 for CN(Cc1nc2c(CN3CCNCC3)cccc2[nH]1)C1CCCc2cccnc21 (stereo not drawn) came out at 1.18

###

Readings of pIC50 for the listed compounds
Tested on: HIV-1 IIIB (T-tropic, CXCR4 utilizing)
EXPERIMENT DESCRIPTION: HOS HIV-1 infectivity assay
Assay type: cell-based
RUN PARAMETERS: as determined by the infectivity assay; strain not stated in Table 2; read-out: Activity Level
Description: Compounds were profiled against two HIV-1 viruses, the M-tropic (CCR5 utilizing) Ba-L strain and the T-tropic (CXCR4 utilizing) IIIB strain. Both viruses were propagated in human peripheral blood lymphocytes. […] Following this incubation the endpoint for the virally infected cultures was quantified following addition of Steady-Glo Luciferase assay system reagent (Promega, Madison, Wis.). […] All luminescent readouts are performed on a Topcount luminescence detector (Packard, Meridien, Conn.).
pIC50: −log10 of the molar value.

CN(Cc1nc2c(C(=O)N3CCC(N)CC3)cccc2[nH]1)C1CCCc2cccnc21 (centres unmarked) [Example 30] ... > 7.00

Summary: CN(Cc1nc2c(C(=O)N3CCC(N)C3)cccc2[nH]1)C1CCCc2cccnc21 (centres unmarked) [Example 31] , HIV-1 IIIB (T-tropic, CXCR4 utilizing), pIC50 = > 7.00

###

MEASUREMENT TARGET: human CXCR4 (Homo sapiens)
Construct: expressed in transfected cells; host or cells: HEK-293 cells (stably expressing human macrophage scavenging receptor) transduced with human CXCR4 BacMam and Gqi5 BacMam baculoviruses
EXPERIMENT DESCRIPTION: Functional FLIPR assay (block of SDF-1 alpha induced [Ca2+]i change)
Assay type: cell-based
RUN PARAMETERS: HEK-293 cells with human CXCR4 BacMam and Gqi5 BacMam; antagonism of SDF-1 alpha; read-out: Functional assay (pIC50) (converted)
Procedure: Human embryonic kidney (HEK-293) cells were maintained and harvested as described above. […] After the required incubation time the cells were washed once with 50 ul of fresh serum-free DMEM/F12 media containing probenicid. […] Cell plates were transferred to a Fluorometric Imaging Plate Reader (FLIPR). […]
ENDPOINT LABEL: IC50 (µM)
Give your result in µM as a bare value.

Just so you know, measured IC50 for CN(Cc1nc2cc(CNCC3CCNCC3)ccc2[nH]1)C1CCCc2cccnc21 (stereo not shown) [Example 19] came out at 0.251

Just so you know, measured IC50 for CN(Cc1nc2c(C(=O)NCCc3cn(C)cn3)cccc2[nH]1)C1CCCc2cccnc21 (stereo not shown) [Example 24] came out at 0.0123

Just so you know, measured IC50 for CN1CCN(c2cccc3nc(CN(C)C4CCCc5cccnc54)[nH]c23)CC1 (stereo not shown) [Example 35] came out at 0.00589

Just so you know, measured IC50 for CN(Cc1nc2c(C(=O)NCCCN3CCCC3)cccc2[nH]1)C1CCCc2cccnc21 (stereo not shown) [Example 28] came out at 0.0575

###

MEASUREMENT TARGET: human CXCR4 (Homo sapiens)
Construct: expressed in transfected cells; host or cells: HEK-293 cells (stably expressing human macrophage scavenging receptor) transduced with human CXCR4 BacMam and Gqi5 BacMam baculoviruses
EXPERIMENT DESCRIPTION: Functional FLIPR assay (block of SDF-1 alpha induced [Ca2+]i change)
Type: cell-based
RUN PARAMETERS: HEK-293 cells with human CXCR4 BacMam and Gqi5 BacMam; antagonism of SDF-1 alpha; read-out: Functional assay (pIC50) (converted)
Readings of log10 IC50 for the listed compounds
# log10 transformed; quantity=IC50; unit=nM

Just so you know, measured log10 IC50 for CN(Cc1nc2cccc(C(=O)NCCc3c[nH]cn3)c2n1C)C1CCCc2cccnc21 (stereo not drawn) came out at 0.93

Just so you know, measured log10 IC50 for CN(Cc1nc2c(C(=O)N3CCC(N)CC3)cccc2[nH]1)C1CCCc2cccnc21 (stereo not drawn) came out at 3.30

Just so you know, measured log10 IC50 for CN1CCN(C(=O)c2cccc3[nH]c(CN(C)C4CCCc5cccnc54)nc23)CC1 (stereo not drawn) came out at 2.23

Just so you know, measured log10 IC50 for CN(Cc1nc2c(C(=O)NCCN)cccc2[nH]1)C1CCCc2cccnc21 (stereo not drawn) came out at 1.32

Just so you know, measured log10 IC50 for CCN(Cc1nc2cc(C(=O)NCCN)ccc2[nH]1)C1CCCc2cccnc21 (stereo not drawn) came out at 2.53

###

Readings of pIC50 for the listed compounds
Tested on: HIV-1 IIIB (T-tropic, CXCR4 utilizing)
EXPERIMENT DESCRIPTION: HOS HIV-1 infectivity assay
Type: cell-based
RUN PARAMETERS: Human immunodeficiency virus 1; HIV-1 IIIB, HOS cells, 96 h, luciferase readout; read-out: HOS (3B)
Protocol: Compounds were profiled against two HIV-1 viruses, the M-tropic (CCR5 utilizing) Ba-L strain and the T-tropic (CXCR4 utilizing) IIIB strain. Both viruses were propagated in human peripheral blood lymphocytes. […] Following this incubation the endpoint for the virally infected cultures was quantified following addition of Steady-Glo Luciferase assay system reagent (Promega, Madison, Wis.). […] All luminescent readouts are performed on a Topcount luminescence detector (Packard, Meridien, Conn.).
Just so you know, pIC50 here is -log10 of the concentration in molar units; reply with that number alone.

CN(C)CCCNC(=O)c1cccc2[nH]c(CN(C)C3CCCc4cccnc43)nc12 (stereo not shown) [Example 29] ... 7.09

Just so you know, measured pIC50 for CN(Cc1nc2cc(C(=O)NCc3ccc(CN)cc3)ccc2[nH]1)C1CCCc2cccnc21 (stereo not shown) [Example 20] came out at 5.63
